viability, T/C by entry:
System: 556581-035-R-J1-PDC spheroids with HUVEC/MSC, viability;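 note: spheroids exposed to compounds for 7 days before readout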
Test: Anticancer human tumor 556581-035-R-J1-PDC patient-derived ovarian carcinoma cell line growth inhibition [IpAb]
Conditions: second compound 0.01 µM; first compound 0.0316 µM; hits give low values
Field format: number, assumed %, no unit text.

Cc1nc(NC(=O)N2CCCC2C(N)=O)sc1-c1ccnc(C(C)(C)C(F)(F)F)c1 (stereo not given) + CCN1CCN(Cc2ccc(Nc3ncc(F)c(-c4cc(F)c5nc(C)n(C(C)C)c5c4)n3)nc2)CC1 : 87.3
CC(C)n1nc(-c2ccc3oc(N)nc3c2)c2c(N)ncnc21 + CCN1CCN(Cc2ccc(Nc3ncc(F)c(-c4cc(F)c5nc(C)n(C(C)C)c5c4)n3)nc2)CC1 : 26.4
C=CC(=O)N1CCN(c2nc(=O)n(-c3c(C)ccnc3C(C)C)c3nc(-c4c(O)cccc4F)c(F)cc23)C(C)C1 (stereo not given) + CCN1CCN(Cc2ccc(Nc3ncc(F)c(-c4cc(F)c5nc(C)n(C(C)C)c5c4)n3)nc2)CC1 : 102
CC1(C)CCC(CN2CCN(c3ccc(C(=O)NS(=O)(=O)c4ccc(NCC5CCOCC5)c([N+](=O)[O-])c4)c(Oc4cnc5[nH]ccc5c4)c3)CC2)=C(c2ccc(Cl)cc2)C1 + CCN1CCN(Cc2ccc(Nc3ncc(F)c(-c4cc(F)c5nc(C)n(C(C)C)c5c4)n3)nc2)CC1 : 92.6
C=CCn1c(=O)c2cnc(Nc3ccc(N4CCN(C)CC4)cc3)nc2n1-c1cccc(C(C)(C)O)n1 + CCN1CCN(Cc2ccc(Nc3ncc(F)c(-c4cc(F)c5nc(C)n(C(C)C)c5c4)n3)nc2)CC1 : 96.9
Cn1ncc(Cl)c1-c1cc(C(=O)NC(CN)Cc2cccc(F)c2)sc1Cl (stereo not given) + CCN1CCN(Cc2ccc(Nc3ncc(F)c(-c4cc(F)c5nc(C)n(C(C)C)c5c4)n3)nc2)CC1 : 96

Data request: For 556581-035-R-J1-PDC spheroids with HUVEC/MSC, viability, give viability, T/C of the listed compound: CCCS(=O)(=O)Nc1ccc(F)c(C(=O)c2c[nH]c3ncc(-c4ccc(Cl)cc4)cc23)c1F + CCN1CCN(Cc2ccc(Nc3ncc(F)c(-c4cc(F)c5nc(C)n(C(C)C)c5c4)n3)nc2)CC1
Data returned: 114

Data request: For 556581-035-R-J1-PDC spheroids with HUVEC/MSC, viability, give viability, T/C of the listed compound: Cn1nccc1Nc1nccc(-c2ccn(C(CO)c3ccc(Cl)c(F)c3)c(=O)c2)n1 (stereo not given) + CCN1CCN(Cc2ccc(Nc3ncc(F)c(-c4cc(F)c5nc(C)n(C(C)C)c5c4)n3)nc2)CC1
Data returned: 110

Data request: For 556581-035-R-J1-PDC spheroids with HUVEC/MSC, viability, give viability, T/C of the listed compound: Cn1ncnc1[C@H]1c2n[nH]c(=O)c3cc(F)cc(c23)N[C@@H]1c1ccc(F)cc1 + CCN1CCN(Cc2ccc(Nc3ncc(F)c(-c4cc(F)c5nc(C)n(C(C)C)c5c4)n3)nc2)CC1
Data returned: 84.1

Data request: For 556581-035-R-J1-PDC spheroids with HUVEC/MSC, viability, give viability, T/C of the listed compound: COc1c(OCCCN2CCOCC2)ccc2c3n(c(=NC(=O)c4cnc(N)nc4)nc12)CCN3 + CCN1CCN(Cc2ccc(Nc3ncc(F)c(-c4cc(F)c5nc(C)n(C(C)C)c5c4)n3)nc2)CC1
Data returned: 39.6
